Tested on: C. albicans SC5314
Test: Antifungal susceptibility testing, microbroth dilution MIC
Type: cell-based
Details: Candida albicans, SC5314; C. albicans wild-type strain; RPMI1640, 35°C, 24 h; read-out: MIC (μg/mL) against fungi SC5314
METRIC_NAME: MIC (µg/mL)
Number only, in µg/mL; omit the unit.

The following compounds have reported results that may help.
- COMPOUND: "OC(Cn1cncn1)(Cn1cncn1)c1ccc(F)cc1F [FLC, fluconazole, reference compound]"
  OBSERVED_VALUE: 2
- COMPOUND: "C/C(=N\\NC(=S)Nc1ccc(Br)cc1)c1ccccn1 [Compound 19t]"
  OBSERVED_VALUE: 0.5
- COMPOUND: "NC(=S)NN=Cc1ncccc1N [Triapine, reference compound]"
  OBSERVED_VALUE: 32
- COMPOUND: "C/C(=N\\NC(=S)N(C)C)c1ccccn1 [Compound 19ak]"
  OBSERVED_VALUE: 0.125

Continue with the compound presented below.
The compound listed as S=C(N/N=C/c1ccc(Br)cn1)Nc1ccc(Br)cc1 [Compound 19k] shows MIC equal to 1
